Ki, Sigma non-opioid intracellular receptor 1 (Cavia porcellus), per-entry values.

>  <COMPOUND STRING>
COc1ccc2c(c1)[C@]13CCCC[C@@H]1[C@H](C2)N(C)CC3

>  <Ki / nM>
10

$$$$
>  <COMPOUND STRING>
Cn1nc(CN2CCCC2)nc1-c1ccc(C(C)(C)C)cc1

>  <Ki / nM>
3.4

$$$$

###

- ASSAY SYSTEM: Sigma non-opioid intracellular receptor 1 (Homo sapiens)
- Sequence (Q99720 whole entry): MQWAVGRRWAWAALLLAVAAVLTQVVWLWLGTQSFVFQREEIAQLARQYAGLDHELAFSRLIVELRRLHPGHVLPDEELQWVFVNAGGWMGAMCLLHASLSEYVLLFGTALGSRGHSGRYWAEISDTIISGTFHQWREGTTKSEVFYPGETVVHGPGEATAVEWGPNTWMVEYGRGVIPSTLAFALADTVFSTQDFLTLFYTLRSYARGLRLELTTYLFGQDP
- ASSAY REMARKS: Displacement of [3H]-pentazocine from sigma-1 receptor in human Jurkat cell membrane at 100 nM incubated for 2 hr by liquid scintillation counting method relative to control
- Assay type: cell membranes
Readings of Activity for the listed molecules

>  <COMPOUND STRING>
Cc1ccc(-c2nc(CN3CCCC3)nn2C)cc1C

>  <UNIT ABBREV>
%

>  <Activity>
28

$$$$
>  <COMPOUND STRING>
Cn1nc(CN2CCCC2)nc1-c1ccc(Oc2ccccc2)cc1

>  <UNIT ABBREV>
%

>  <Activity>
39

$$$$
>  <COMPOUND STRING>
Cc1ccc(-c2nc(CN3CCCC3)nn2C)cc1

>  <UNIT ABBREV>
%

>  <Activity>
3

$$$$
>  <COMPOUND STRING>
Cn1nc(CN2CCCC2)nc1-c1ccc2c(c1)CCC2

>  <UNIT ABBREV>
%

>  <Activity>
37

$$$$
>  <COMPOUND STRING>
Cn1nc(CN2CCCC2)nc1-c1ccc(Cl)cc1

>  <UNIT ABBREV>
%

>  <Activity>
31

$$$$
>  <COMPOUND STRING>
Cn1nc(CN2CCCC2)nc1-c1cccc(Oc2ccccc2)c1

>  <UNIT ABBREV>
%

>  <Activity>
21

$$$$
>  <COMPOUND STRING>
Cn1nc(CN2CCCC2)nc1-c1ccc(C2CC2)cc1

>  <UNIT ABBREV>
%

>  <Activity>
30

$$$$

###

- ASSAY REMARKS: Displacement of [3H]-DTG from sigma-2 receptor in guinea pig brain membrane incubated for 1 hr by liquid scintillation counting method
- Type: cell membranes, Cavia porcellus
pKi: −log10 of the molar value.
VALUE KIND: pKi

>  <COMPOUND STRING>
Cn1nc(CN2CCOCC2)nc1-c1ccc(C(C)(C)C)cc1

>  <OPERATOR SYMBOL>
<

>  <OBS VALUE>
6.00

$$$$
>  <COMPOUND STRING>
Cc1cc(OCCN2CCOCC2)nn1-c1ccc2ccccc2c1

>  <OPERATOR SYMBOL>
<

>  <OBS VALUE>
6.00

$$$$
>  <COMPOUND STRING>
Cn1nc(CN2CCN(c3ccccc3)CC2)nc1-c1ccc(C(C)(C)C)cc1

>  <OPERATOR SYMBOL>
<

>  <OBS VALUE>
6.00

$$$$
>  <COMPOUND STRING>
CN1CCN(Cc2nc(-c3ccc(C(C)(C)C)cc3)n(C)n2)CC1

>  <OPERATOR SYMBOL>
<

>  <OBS VALUE>
6.00

$$$$
>  <COMPOUND STRING>
Cn1nc(CN2CCN(Cc3ccccc3)CC2)nc1-c1ccc(C(C)(C)C)cc1

>  <OPERATOR SYMBOL>
=

>  <OBS VALUE>
7.41

$$$$
>  <COMPOUND STRING>
Cn1nc(CN2CCN(CCc3ccccc3)CC2)nc1-c1ccc(C(C)(C)C)cc1

>  <OPERATOR SYMBOL>
=

>  <OBS VALUE>
7.85

$$$$
>  <COMPOUND STRING>
Cn1nc(CN2CCC(Cc3ccccc3)CC2)nc1-c1ccc(C(C)(C)C)cc1

>  <OPERATOR SYMBOL>
=

>  <OBS VALUE>
7.24

$$$$
